# system under test: Human mTOR (FLAG-TOR) (Homo sapiens, UniProt P42345)
# Construct: FLAG
# assay overview: Human mTOR kinase assay with purified enzyme, DELFIA format
# Assay type: biochemical
# test parameters: purified human mTOR enzyme, DELFIA format
assay readout: IC50 (nM)

Solved entries:
>  <compound>
CN1CCN(c2ccc(NC(=O)Nc3ccc(-c4nc(N5CC6CCC(C5)O6)c5cnn([C@H]6CC[C@H](O)CC6)c5n4)cc3)cc2)CC1 (relative stereo)

>  <IC50 / nM>
0.19

$$$$
>  <compound>
CCn1ncc2c(N3CC4CCC(C3)O4)nc(-c3ccc(NC(=O)OC)cc3)nc21

>  <IC50 / nM>
15.5

$$$$
>  <compound>
O=C(Nc1ccccc1)Nc1ccc(-c2nc(N3CC4CCC(C3)O4)c3sccc3n2)cc1

>  <IC50 / nM>
1.3

$$$$

I = CN(C)CCOc1ccc(NC(=O)Nc2ccc(-c3nc(N4C[C@@H]5C[C@H]4CO5)c4cnn(CC(F)(F)F)c4n3)cc2)cc1
II = COCC(COC)n1ncc2c(N3CC4CCC(C3)O4)nc(-c3ccc(NC(=O)OC)cc3)nc21
Data request: Param pair: I , II . Output: the one whose IC50 is numerically greater. Write the label of whichever entry you select.
Data returned: II

A = CCn1nc(CN2CCCC2)c2c(N3CC4CCC(C3)O4)nc(-c3ccc(NC(=O)NC)cc3)nc21
B = CN1CCN(Cc2cc3nc(-c4ccc(NC(=O)Nc5ccncc5)cc4)nc(N4CC5CCC(C4)O5)c3s2)CC1
Data request: Kindly identify the item with the lower IC50 figure among these two: A and B Write the label of whichever entry you select.
Data returned: B
(B: 3.7 nM, A: 66.5 nM)

P = O=CN1CC2CN(c3nc(-c4ccc(NC(=O)Nc5ccncc5)cc4)nc4c3cnn4CC(F)(F)F)CC(C1)O2
Q = O=C(Nc1ccc(-c2nc(N3C[C@@H]4C[C@H]3CO4)c3cnn(CC(F)(F)F)c3n2)cc1)Nc1ccc(N2CCNCC2)cc1
Data request: Kindly identify the item with the lower IC50 figure among these two: P and Q Write the label of whichever entry you select.
Data returned: Q

###

# system under test: PI3K (Homo sapiens, UniProt P48736)
# Construct: PI3 Kinase γ IC50; other: PI3 Kinase γ; other: PI3 Kinase γ isoform, fluorescence polarization
# Sequence (P48736 whole entry, canonical isoform): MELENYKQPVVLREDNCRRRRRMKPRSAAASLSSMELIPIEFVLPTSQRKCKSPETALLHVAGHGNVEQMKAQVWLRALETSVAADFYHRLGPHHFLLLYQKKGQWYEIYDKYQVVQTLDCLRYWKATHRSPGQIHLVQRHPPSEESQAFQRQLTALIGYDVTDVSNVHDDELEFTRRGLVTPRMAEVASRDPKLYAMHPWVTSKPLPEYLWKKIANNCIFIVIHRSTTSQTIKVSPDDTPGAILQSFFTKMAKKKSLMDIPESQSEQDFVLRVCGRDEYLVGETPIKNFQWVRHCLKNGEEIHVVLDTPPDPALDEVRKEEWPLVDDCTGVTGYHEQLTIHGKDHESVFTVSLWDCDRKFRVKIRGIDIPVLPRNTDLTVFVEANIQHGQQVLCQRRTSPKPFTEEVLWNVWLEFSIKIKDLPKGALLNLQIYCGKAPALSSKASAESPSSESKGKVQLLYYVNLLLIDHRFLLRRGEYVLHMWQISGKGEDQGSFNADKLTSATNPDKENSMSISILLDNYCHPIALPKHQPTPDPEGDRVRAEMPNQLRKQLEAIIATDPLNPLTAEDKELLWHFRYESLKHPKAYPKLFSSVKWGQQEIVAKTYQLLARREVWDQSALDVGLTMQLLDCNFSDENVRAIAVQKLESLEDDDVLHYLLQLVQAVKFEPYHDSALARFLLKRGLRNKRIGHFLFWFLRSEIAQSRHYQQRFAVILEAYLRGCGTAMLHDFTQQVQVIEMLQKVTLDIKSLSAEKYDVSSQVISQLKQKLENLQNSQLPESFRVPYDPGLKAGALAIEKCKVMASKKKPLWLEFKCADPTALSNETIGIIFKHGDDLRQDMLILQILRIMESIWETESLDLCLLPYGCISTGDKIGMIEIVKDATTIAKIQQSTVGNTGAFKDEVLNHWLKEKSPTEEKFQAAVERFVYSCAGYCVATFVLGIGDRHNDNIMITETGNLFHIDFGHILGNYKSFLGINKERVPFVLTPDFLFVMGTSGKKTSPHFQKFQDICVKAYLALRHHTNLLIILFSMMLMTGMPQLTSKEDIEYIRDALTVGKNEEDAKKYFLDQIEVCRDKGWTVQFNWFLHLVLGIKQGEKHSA
# assay overview: Fluorescence polarization assay for PI3K
# Assay type: biochemical
# test parameters: PI3 Kinase γ isoform, fluorescence polarization; read-out: PI3 Kinase γ IC50
assay readout: IC50 (µM)

Solved entries:
>  <compound>
COC(=O)N1CCC(n2ncc3c(N4C5CCC4COC5)nc(-c4ccc(NC(=O)NCCF)cc4)nc32)CC1 [Example 358]

>  <result unit>
µM

>  <IC50>
7.93

$$$$
>  <compound>
COC(=O)N1CCC(n2ncc3c(N4C5CCC4COC5)nc(-c4ccc(NC(=O)NC5CC5)cc4)nc32)CC1 [Example 359]

>  <result unit>
µM

>  <IC50>
7.79

$$$$

1 = COC1CCC(n2ncc3c(N4CC5CCC(C4)O5)nc(-c4ccc(NC(=O)Nc5ccc(N6CCNCC6)cc5)cc4)nc32)CC1 (stereo not shown) [Example 305]
2 = COCC(COC)n1ncc2c(N3CC4CCC(C3)O4)nc(-c3ccc(NC(=O)Nc4ccc(N5CCNCC5)cc4)cc3)nc21 [Example 335]
Data request: Param pair: 1 , 2 . Output: the one whose IC50 is numerically greater. Write the label of whichever entry you select.
Data returned: 2

###

# system under test: PI3K (Homo sapiens)
# Construct: PI3 Kinase α IC50; other: PI3 Kinase α; other: PI3 Kinase α isoform, fluorescence polarization
# assay overview: Fluorescence polarization assay for PI3K
# Assay type: biochemical
# test parameters: PI3 Kinase α; read-out: PI3 Kinase α IC50
assay readout: IC50 (nM)

Solved entries:
>  <compound smiles>
O=C(Nc1ccc(-c2nc(N3C4CCC3COC4)c3cnn(CC(F)(F)F)c3n2)cc1)Nc1ccc(N2CCOCC2)nc1

>  <obs value>
1210

$$$$
>  <compound smiles>
CCOC(=O)N1CCC(n2ncc3c(N4CC5CCC(C4)O5)nc(-c4ccc(NC(=O)Nc5ccncc5)cc4)nc32)CC1

>  <obs value>
291

$$$$

1 = CCn1ncc2c(N3CC4CCC(C3)O4)nc(-c3ccc(NC(=O)Nc4ccc(NC)nc4)cc3)nc21
2 = COC(=O)Nc1ccc(-c2nc(N3CC4CCC(C3)O4)c3cnn(C4CCN(C(=O)OC(C)C)CC4)c3n2)cc1
3 = CC(C)n1ncc2c(N3CC4CCC(C3)O4)nc(-c3ccc(NC(=O)Nc4ccncc4)cc3)nc21
4 = CCn1ncc2c(N3CC4CCC(C3)O4)nc(-c3ccc(NC(=O)Nc4cccnc4)cc3)nc21
5 = CNC(=O)Nc1ccc(-c2nc(N3CC4CCC(C3)O4)c3cnn(C4CCN(C(=O)OC)CC4)c3n2)cc1
Data request: Please produce an ascending ranking of these compounds based on IC50. List the labels in the requested order.
Data returned: 3, 4, 1, 5, 2

###

# system under test: Human mTOR (FLAG-TOR) (Homo sapiens, UniProt P42345)
# Construct: FLAG
# assay overview: Human mTOR kinase assay with purified enzyme, DELFIA format
# Assay type: biochemical
assay readout: IC50 (pM)

a = O=C(Nc1ccc(CCO)cc1)Nc1ccc(-c2nc(N3CC4CCC(C3)O4)c3cnn(CCO)c3n2)cc1
b = CC(C)(C)OC(=O)N1CCC(n2ncc3c(N4CC5CCC(C4)O5)nc(-c4ccc(NC(=O)NC5CC5)cc4)nc32)CC1
c = CNC(=O)Nc1ccc(-c2nc(N3C[C@@H]4C[C@H]3CO4)c3cnn(CC(F)(F)F)c3n2)cc1
d = COC(=O)Nc1ccc(-c2nc(N3CC4CCC(C3)O4)c3cnn(C(C)(C)C)c3n2)cc1
Data request: hey, can you rank those molecules up there by IC50? biggest number first please List the labels in the requested order.
Data returned: d, c, b, a

I = Cn1ncc2c(N3CC4CCC(C3)O4)nc(-c3ccc(NC(=O)Nc4ccc(CCO)cc4)cc3)nc21
II = O=C(Nc1ccccc1)Nc1ccc(-c2nc(N3CC4CCC(C3)O4)c3cnn(C4CCNCC4)c3n2)cc1
III = CCn1ncc2c(N3CC4CCC(C3)O4)nc(-c3ccc(NC(=O)Nc4ccc(N5CCNCC5)cc4)cc3)nc21
Data request: Order the 3 molecules from highest to lowest IC50. List the labels in the requested order.
Data returned: II, III, I

###

# system under test: PI3K (Homo sapiens)
# Construct: PI3 Kinase α IC50; other: PI3 Kinase α; other: PI3 Kinase α isoform, fluorescence polarization
# assay overview: Fluorescence polarization assay for PI3K
# Format: biochemical
# test parameters: PI3 Kinase α isoform, fluorescence polarization; read-out: PI3 Kinase α IC50
pIC50: −log10 of the molar value.
assay readout: pIC50

>  <molecule>
CC(C)(C)OC(=O)N1CC2CN(c3nc(-c4ccc(NC(=O)Nc5ccncc5)cc4)nc4c3cnn4CC(F)(F)F)CC(C1)O2

>  <pIC50>
5.29

$$$$

I = O=C(Nc1ccc(-c2nc(N3CC4CCC(C3)O4)c3cnn(C4CCC5(CCCO5)CC4)c3n2)cc1)Nc1ccc(N2CCNCC2)cc1 (single isomer, unassigned)
II = COCC(COC)n1ncc2c(N3CC4CCC(C3)O4)nc(-c3ccc(NC(=O)NC4CC4)cc3)nc21
III = Nc1ncc(-c2nc(N3CC4CCC(C3)O4)c3sccc3n2)cn1
IV = O=C(Nc1ccc(-c2nc(N3C[C@@H]4C[C@H]3CO4)c3cnn(CC(F)(F)F)c3n2)cc1)Nc1ccc(N2CCOCC2)cc1
V = Cn1ncc2c(N3CC4COC(C3)O4)nc(-c3ccc(NC(=O)Nc4cccnc4)cc3)nc21 (centres unmarked)
Data request: Please produce an ascending ranking of these molecules based on pIC50. List the labels in the requested order.
Data returned: II, IV, I, III, V

I = CCn1nc(C(O)CO)c2c(N3CC4CCC(C3)O4)nc(-c3ccc(NC(=O)NC)cc3)nc21 (centres unmarked)
II = COC1CCC(n2ncc3c(N4CC5CCC(C4)O5)nc(-c4ccc(NC(=O)Nc5ccncc5)cc4)nc32)CC1 (centres unmarked)
III = CNC(=O)Nc1ccc(-c2nc(N3CC4COC(C3)O4)c3cnn(C)c3n2)cc1 (centres unmarked)
IV = COC1CCC(n2ncc3c(N4CC5CCC(C4)O5)nc(-c4ccc(NC(=O)Nc5cccnc5)cc4)nc32)CC1 (centres unmarked)
V = CO[C@H]1CC[C@H](n2ncc3c(N4CC5CCC(C4)O5)nc(-c4ccc(NC(=O)NC5CC5)cc4)nc32)CC1 (relative stereo)
Data request: Order the 5 molecules from highest to lowest pIC50. List the labels in the requested order.
Data returned: II, IV, III, V, I

###

# system under test: PI3K (Homo sapiens, UniProt P48736)
# Construct: PI3 Kinase γ IC50; other: PI3 Kinase γ; other: PI3 Kinase γ isoform, fluorescence polarization
# assay overview: Fluorescence polarization assay for PI3K
# Format: biochemical
# test parameters: PI3 Kinase γ; read-out: PI3 Kinase γ IC50
assay readout: IC50 (µM)

Solved entries:
>  <compound>
O=C(Nc1ccc(-c2nc(N3CC4CCC(C3)O4)c3cnn(CC(F)(F)F)c3n2)cc1)OCCO [Example 110]

>  <obs value>
12

$$$$
>  <compound>
O=C(Nc1ccc(-c2nc(N3CC4CCC(C3)O4)c3cnn(C4CCN(CC(F)(F)F)CC4)c3n2)cc1)OCCO [Example 209]

>  <obs value>
4.95

$$$$
>  <compound>
CCn1ncc2c(N3CC4CCC(C3)O4)nc(-c3ccc(NC(=O)Nc4ccc(N5CCOCC5)nc4)cc3)nc21 [Example 184]

>  <obs value>
7.76

$$$$

a = CCNC(=O)Nc1ccc(-c2nc(N3CC4CCC(C3)O4)c3cnn(C(C)C)c3n2)cc1 [Example 140]
b = O=C(Nc1ccc(-c2nc(N3CC4CCC(C3)O4)c3cnn(CC(F)(F)F)c3n2)cc1)Nc1cccc(CO)c1 [Example 255]
Data request: Kindly identify the item with the lower IC50 figure among these two: a and b Write the label of whichever entry you select.
Data returned: b
